- tested.system: CHO cells over-expressing the EP3 receptor (Homo sapiens, UniProt P43115)
- Sequence (P43115 whole entry): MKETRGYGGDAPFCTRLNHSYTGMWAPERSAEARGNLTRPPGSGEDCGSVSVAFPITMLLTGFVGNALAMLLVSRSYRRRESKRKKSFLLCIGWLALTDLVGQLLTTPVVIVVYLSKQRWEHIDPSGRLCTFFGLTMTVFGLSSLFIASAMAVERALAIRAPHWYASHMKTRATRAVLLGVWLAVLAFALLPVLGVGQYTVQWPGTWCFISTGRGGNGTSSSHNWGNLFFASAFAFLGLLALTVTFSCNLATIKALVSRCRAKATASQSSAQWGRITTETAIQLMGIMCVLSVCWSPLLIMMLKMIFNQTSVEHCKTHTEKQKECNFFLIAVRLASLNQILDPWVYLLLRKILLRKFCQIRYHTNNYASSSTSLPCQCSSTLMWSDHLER
- assay.summary: CHO cell cAMP assay; EP3 cAMP antagonist dose response (sulprostone reference), HTRF
- test.context: sulprostone 700 nM (EC80) and FSK 2 μM (EC70); read-out: CHO_cAMP IC50
I'd appreciate it if you could supply pIC50 values for the items below.
# log scale: pIC50 equals minus log10 of the concentration in mol/L

Qu. pIC50 lookup needed for CN(C/C(F)=C1\COCc2cnn(Cc3ccc(Cl)cc3Cl)c21)C(=O)NS(=O)(=O)c1cc(Cl)c(Cl)s1 , thanks.
Ans. 7.51

Qu. pIC50 lookup needed for O=C(NC/C=C1\CC(F)(F)Cc2cnn(Cc3ccc(Cl)cc3Cl)c21)NS(=O)(=O)c1ccc(Cl)cc1 , thanks.
Ans. 7.85

Qu. pIC50 lookup needed for O=C(NC/C=C1\CCCc2cnn(-c3cccc(C(F)(F)F)c3)c21)NS(=O)(=O)c1cc(Cl)c(Cl)s1 , thanks.
Ans. 6.67

Qu. pIC50 lookup needed for O=C(CC/C=C1\CCCc2cnn(Cc3ccc(Cl)cc3Cl)c21)NS(=O)(=O)c1cc(Cl)c(Cl)s1 , thanks.
Ans. 8.70

Qu. pIC50 lookup needed for O=C(NC/C=C1\CCCc2cnn(Cc3ccc(Cl)cc3Cl)c21)NS(=O)(=O)c1cc2ccccc2s1 , thanks.
Ans. 7.89

Qu. pIC50 lookup needed for Cc1ncc(S(=O)(=O)NC(=O)NC/C=C2\CCCc3cnn(Cc4ccc(Cl)cc4Cl)c32)s1 , thanks.
Ans. 8.05

Qu. pIC50 lookup needed for O=C(C/C=C1\CCCc2cnn(Cc3ccc(Cl)cc3Cl)c21)NS(=O)(=O)c1cnc2ccccc2c1 , thanks.
Ans. 5.54

Qu. pIC50 lookup needed for COc1ccccc1S(=O)(=O)NC(=O)CC/C=C1\CCCc2cnn(Cc3ccc(Cl)cc3Cl)c21 , thanks.
Ans. 6.75

Qu. pIC50 lookup needed for O=C(NC/C=C1/c2c(cnn2Cc2ccc(Cl)cc2Cl)CCC1F)NS(=O)(=O)c1ccc(Cl)cc1 (stereo not drawn) , thanks.
Ans. 8.30

Qu. pIC50 lookup needed for O=C(NS(=O)(=O)c1ccc(Cl)cc1)OC/C=C1/c2c(cnn2Cc2ccc(Cl)cc2Cl)CCC1F (stereo not drawn) , thanks.
Ans. 7.12

Qu. pIC50 lookup needed for COc1ccc(Cn2ncc3c2/C(=C(\F)CNC(=O)NS(=O)(=O)c2cc(Cl)c(Cl)s2)CCC3)cn1 , thanks.
Ans. 6.12

Qu. pIC50 lookup needed for O=C(NC/C=C1\CCCc2cnn(Cc3ccc(Cl)cc3Cl)c21)NS(=O)(=O)c1ccc(Cl)s1 , thanks.
Ans. 8.70

Qu. pIC50 lookup needed for Cc1nc(C)c(S(=O)(=O)NC(=O)NC/C=C2\CCCc3cnn(Cc4ccc(Cl)cc4Cl)c32)s1 , thanks.
Ans. 8.40

Qu. pIC50 lookup needed for O=C(NS(=O)(=O)c1ccc(Cl)cc1)OC/C=C1\c2c(cnn2Cc2ccc(Cl)cc2Cl)CCC1F (stereo not drawn) , thanks.
Ans. 4.80

Qu. pIC50 lookup needed for O=C(NC/C(F)=C1\CCCc2cnn(-c3ccc(C(F)(F)F)cc3)c21)NS(=O)(=O)c1cc(Cl)c(Cl)s1 , thanks.
Ans. 7.70

---

- tested.system: EP3 membrane (EP3 receptor) (Homo sapiens, UniProt P43115)
- Construct: purchased Millipore HTS092M
- Sequence (P43115 whole entry): as above
- assay.summary: [3H]-PGE2 binding; EP3 competition binding (SPA)
result.type: pKi
# log scale: pKi equals minus log10 of the concentration in mol/L

Qu. Item: O=C(NC/C(F)=C1/CCCc2onc(Cc3ccc(Cl)cc3Cl)c21)NS(=O)(=O)c1cc(Cl)c(Cl)s1 [Compound #128] Test system: EP3 membrane (EP3 receptor) (Homo sapiens, UniProt P43115) Read-out: pKi Value: ?
Ans. 6.27

Qu. Item: O=C(CC/C=C1\CCCc2cnn(Cc3ccc(Cl)cc3Cl)c21)NS(=O)(=O)c1ccc(Cl)s1 [Compound #29] Test system: EP3 membrane (EP3 receptor) (Homo sapiens, UniProt P43115) Read-out: pKi Value: ?
Ans. 9.00

Qu. Item: O=C(NS(=O)(=O)c1cc(Cl)c(Cl)s1)OC/C=C1\COCc2cnn(Cc3ccc(Cl)cc3Cl)c21 [Compound #46] Test system: EP3 membrane (EP3 receptor) (Homo sapiens, UniProt P43115) Read-out: pKi Value: ?
Ans. 8.70

Qu. Item: Cc1c(S(=O)(=O)NC(=O)NC/C(F)=C2\CCCc3cnn(Cc4ccc(Cl)cc4Cl)c32)cnn1C [Compound #169] Test system: EP3 membrane (EP3 receptor) (Homo sapiens, UniProt P43115) Read-out: pKi Value: ?
Ans. 7.08

Qu. Item: O=C(C/C=C1\CCCc2cnn(Cc3ccc(Cl)cc3Cl)c21)NS(=O)(=O)c1cnc2ccccc2c1 [Compound #22] Test system: EP3 membrane (EP3 receptor) (Homo sapiens, UniProt P43115) Read-out: pKi Value: ?
Ans. 6.43

Qu. Item: COc1ccccc1S(=O)(=O)NC(=O)CC/C=C1\CCCc2cnn(Cc3ccc(Cl)cc3Cl)c21 [Compound #44] Test system: EP3 membrane (EP3 receptor) (Homo sapiens, UniProt P43115) Read-out: pKi Value: ?
Ans. 7.02

Qu. Item: O=C(NC/C(F)=C1/COCc2cnn(Cc3ccc(Cl)cc3Cl)c21)NS(=O)(=O)c1cc(Cl)c(Cl)s1 [Compound #60] Test system: EP3 membrane (EP3 receptor) (Homo sapiens, UniProt P43115) Read-out: pKi Value: ?
Ans. 8.15
